molecular target: PSMA (PSMA+ PC3-Pip cells) (Homo sapiens, UniProt Q04609); construct: host or cells: PC3-Pip (PSMA+ subline of PC-3); experiment: 68Ga-PSMA-11 competition radioligand binding assay; details: Table 10 Experiment 2, unlabeled
Sequence (Q04609 whole entry): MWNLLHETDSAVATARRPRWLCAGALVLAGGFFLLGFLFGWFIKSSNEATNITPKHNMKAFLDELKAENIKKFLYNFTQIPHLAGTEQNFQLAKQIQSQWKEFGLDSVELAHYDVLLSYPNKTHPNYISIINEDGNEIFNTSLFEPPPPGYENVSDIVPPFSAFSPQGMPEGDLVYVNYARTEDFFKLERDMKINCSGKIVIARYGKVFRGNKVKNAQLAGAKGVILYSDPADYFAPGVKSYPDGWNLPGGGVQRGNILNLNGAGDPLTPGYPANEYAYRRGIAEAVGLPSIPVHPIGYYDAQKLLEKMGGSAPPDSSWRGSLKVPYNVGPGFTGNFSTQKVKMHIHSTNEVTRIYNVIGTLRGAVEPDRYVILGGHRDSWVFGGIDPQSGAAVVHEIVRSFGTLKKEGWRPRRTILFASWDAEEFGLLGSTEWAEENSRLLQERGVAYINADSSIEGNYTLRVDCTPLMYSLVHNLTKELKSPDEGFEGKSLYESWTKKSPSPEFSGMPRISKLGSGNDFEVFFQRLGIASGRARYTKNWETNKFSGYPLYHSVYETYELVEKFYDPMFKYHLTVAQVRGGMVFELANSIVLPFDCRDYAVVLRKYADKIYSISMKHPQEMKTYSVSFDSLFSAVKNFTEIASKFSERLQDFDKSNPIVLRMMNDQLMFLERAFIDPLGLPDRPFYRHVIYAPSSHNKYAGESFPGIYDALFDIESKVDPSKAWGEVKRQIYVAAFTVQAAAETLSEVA
Observable: IC50 (nM)
Return type: number; implicit unit nM.

**Query** // lookup IC50 | system=PSMA (PSMA+ PC3-Pip cells) (Homo sapiens, UniProt Q04609) | key= [N-]=[N+]=NCCCCCCOC(=O)NCCCC[C@H](NC(=O)N[C@@H](CCC(=O)O)C(=O)O)C(=O)O [Azido-ACUPA]
**Result** 328
